STUDY SYSTEM: recombinant human MAO-A (Homo sapiens)
Sequence (P21397 whole entry): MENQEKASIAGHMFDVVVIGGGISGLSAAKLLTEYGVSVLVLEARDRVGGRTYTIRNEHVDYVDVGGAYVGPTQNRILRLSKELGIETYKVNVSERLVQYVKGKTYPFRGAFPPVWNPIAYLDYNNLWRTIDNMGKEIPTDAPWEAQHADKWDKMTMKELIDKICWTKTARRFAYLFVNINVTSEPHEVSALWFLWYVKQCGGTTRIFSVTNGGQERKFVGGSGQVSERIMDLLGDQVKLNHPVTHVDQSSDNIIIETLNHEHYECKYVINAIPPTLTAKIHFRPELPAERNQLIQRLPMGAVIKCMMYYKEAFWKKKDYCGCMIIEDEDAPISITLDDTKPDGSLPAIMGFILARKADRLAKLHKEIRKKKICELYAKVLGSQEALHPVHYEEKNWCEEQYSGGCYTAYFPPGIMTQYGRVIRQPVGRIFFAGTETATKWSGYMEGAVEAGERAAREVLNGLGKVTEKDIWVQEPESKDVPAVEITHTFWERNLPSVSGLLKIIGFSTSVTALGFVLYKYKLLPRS
MEASUREMENT NOTES: Human MAO-A inhibitory assay (kynuramine, fluorescence of 4-hydroxyquinoline)
EXPERIMENTAL SETUP: from IC50 by Cheng–Prusoff, Km 16.1 μM
Provide the reported pKi of each item.
One number for each entry, as −log10 of the molar value.

>>> reported_value("COc1cc(-c2cc(=O)c3c(O)c([C@H]4C[C@H](O)[C@@H](O)[C@@H](C)O4)c(O)cc3o2)ccc1O")
9.92
>>> reported_value("O=C(O)/C=C/c1c(O)cc2oc(-c3ccc(O)c(O)c3)cc(=O)c2c1O")
6.88
>>> reported_value("C[C@H]1O[C@@H](c2c(O)cc3oc(-c4ccc(O)c(O)c4)cc(=O)c3c2O)C[C@H](O)[C@H]1O")
9.27
>>> reported_value("COc1cc(-c2cc(=O)c3c(O)c(/C=C/C(=O)O)c(O)cc3o2)ccc1O")
5.32

Ask | Provide one value: measured pKi of COc1cc(-c2cc(=O)c3c(O)cc(O[C@@H]4O[C@@H](C)[C@H](O)[C@@H](O)[C@H]4O)cc3o2)ccc1O [Compound 5, chrysoeriol 7-O-rhamnoside]
Reply | 6.09

Hello, the source for this data is paper PMC6225253, in case you need it.
